The entries below come with measured pIC50 values attached.
- TARGET ENTITY: eeAChE (Electrophorus electricus)
- Sequence (O42275 24-633): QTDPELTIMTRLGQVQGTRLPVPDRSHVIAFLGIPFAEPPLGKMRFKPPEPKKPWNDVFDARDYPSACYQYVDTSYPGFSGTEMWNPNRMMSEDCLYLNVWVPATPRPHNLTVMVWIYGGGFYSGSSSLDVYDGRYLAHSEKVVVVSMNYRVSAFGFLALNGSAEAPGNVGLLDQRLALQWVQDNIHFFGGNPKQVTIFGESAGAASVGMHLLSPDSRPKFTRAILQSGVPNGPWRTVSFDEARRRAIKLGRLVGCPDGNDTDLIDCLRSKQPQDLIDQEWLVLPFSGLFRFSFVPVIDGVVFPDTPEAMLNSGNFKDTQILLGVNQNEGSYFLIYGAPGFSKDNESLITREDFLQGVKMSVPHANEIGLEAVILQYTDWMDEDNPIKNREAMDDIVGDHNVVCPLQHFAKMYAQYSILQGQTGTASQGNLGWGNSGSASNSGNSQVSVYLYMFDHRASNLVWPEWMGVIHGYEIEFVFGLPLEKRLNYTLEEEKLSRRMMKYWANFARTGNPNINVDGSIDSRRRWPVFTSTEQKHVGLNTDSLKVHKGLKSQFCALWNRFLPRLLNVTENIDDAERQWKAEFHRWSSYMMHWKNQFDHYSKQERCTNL
- PROTOCOL DETAILS: eeAChE inhibition, modified Ellman's method
- Assay type: biochemical, electric eel
pIC50: −log10 of the molar value.

Answered examples (2):
{"columns": ["SMILES DATA", "ENDPOINT RESULT"],
 "data": [
  ["Cc1cc(=O)c(OCc2ccccc2)c(/C=C/c2cccc(OC(=O)N(c3ccccc3)c3ccccc3)c2)o1", "< 4.70"],
  ["Cc1cc(=O)c(OCc2ccccc2)c(/C=C/c2cccc(OC(=O)N(C)C)c2)o1", "< 4.70"]
]}

Continue with the next compound.
## Task Given Cc1cc(=O)c(OCc2ccccc2)c(/C=C/c2cccc(OC(=O)N3CCCC3)c2)o1 , state its recorded pIC50.
## Result < 4.70

* * *

- TARGET ENTITY: huBuChE (Homo sapiens)
- Sequence (P06276 29-602): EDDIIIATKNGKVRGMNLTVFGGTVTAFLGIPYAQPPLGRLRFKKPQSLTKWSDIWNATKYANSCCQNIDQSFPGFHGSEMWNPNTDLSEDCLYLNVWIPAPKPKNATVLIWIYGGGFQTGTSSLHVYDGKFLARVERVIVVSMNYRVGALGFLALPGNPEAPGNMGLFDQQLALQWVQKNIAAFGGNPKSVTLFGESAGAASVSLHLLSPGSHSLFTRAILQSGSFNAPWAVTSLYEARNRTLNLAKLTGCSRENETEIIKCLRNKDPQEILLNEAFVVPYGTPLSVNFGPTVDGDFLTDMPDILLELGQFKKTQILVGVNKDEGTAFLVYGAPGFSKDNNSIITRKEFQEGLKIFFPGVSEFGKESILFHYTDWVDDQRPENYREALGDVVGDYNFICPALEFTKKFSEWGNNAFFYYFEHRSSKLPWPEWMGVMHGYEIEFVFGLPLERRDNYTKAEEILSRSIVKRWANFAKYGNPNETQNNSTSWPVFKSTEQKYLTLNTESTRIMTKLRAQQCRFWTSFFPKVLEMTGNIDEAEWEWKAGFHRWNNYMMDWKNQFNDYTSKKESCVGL
Each entry falls in a class defined on IC50; the bands are lowest = under 40 nM, middle = from 40 nM up to 400 nM, highest = 400 nM and over

Solved cases below.
{"columns": ["SMILES DATA", "CLASS NAME"],
 "data": [
  ["Cc1cc(=O)c(OCc2ccccc2)c(/C=C/c2cccc(OC(=O)N3CCC(Cc4ccccc4)CC3)c2)o1", "middle"],
  ["Cc1cc(=O)c(OCc2ccc(-c3ccccc3)cc2)c(/C=C/c2cccc(OC(=O)N3CCCCC3)c2)o1", "lowest"],
  ["Cc1cc(=O)c(OCc2ccccc2)c(/C=C/c2cccc(OC(=O)N(C(C)C)C(C)C)c2)o1", "highest"],
  ["O=C(Oc1cccc(/C=C/c2oc(CO)cc(=O)c2OCc2ccccc2)c1)N1CCCCC1", "lowest"],
  ["Cc1cc(=O)c(OCc2ccccc2)c(-c2ccc(-c3cccc(OC(=O)N4CCCCC4)c3)cc2)o1", "highest"],
  ["O=C(Oc1cccc(/C=C/c2occc(=O)c2OCc2ccccc2)c1)N1CCCCC1", "lowest"],
  ["Cc1cc(=O)c(OCc2ccccc2)c(CCc2cccc(OC(=O)N3CCCCC3)c2)o1", "lowest"],
  ["Cc1cc(=O)c(OCc2ccccc2)c(/C=C/c2cccc(OC(=O)N3CCN(Cc4ccccc4)CC3)c2)o1", "highest"],
  ["Cc1cc(=O)c(OCc2ccccc2)c(/C=C/c2cccc(OC(=O)N3CCCC3)c2)o1", "middle"],
  ["CCN(C)C(=O)Oc1cccc(/C=C/c2oc(C)cc(=O)c2OCc2ccccc2)c1", "highest"]
]}

## Task Lab note: which band did COc1c(/C=C/c2cccc(OC(=O)N3CCCCC3)c2)oc(C)cc1=O land in?
## Result lowest

## Task Now this one: Cc1cc(=O)c(OCc2ccccc2)c(/C=C/c2cccc(OC(=O)N(C)C)c2)o1
## Result middle

## Task Now this one: CCN(CC)C(=O)Oc1cccc(/C=C/c2oc(C)cc(=O)c2OCc2ccccc2)c1
## Result highest

## Task Now this one: Cc1cc(=O)c(OCc2ccccc2)c(/C=C/c2cccc(OC(=O)N3CCCCC3)c2)o1
## Result lowest

## Task Now this one: Cc1cc(=O)c(OCc2ccccc2)c(/C=C/c2cccc(OC(=O)N3CCOCC3)c2)o1
## Result highest

## Task Now this one: Cc1cc(=O)c(OCc2ccccc2)c(/C=C/c2cccc(OCC(=O)N3CCCCC3)c2)o1
## Result highest

## Task Now this one: Cc1cc(=O)c(OCc2ccccc2)c(/C=C/c2cccc(OC(=O)N(c3ccccc3)c3ccccc3)c2)o1
## Result highest

## Task Now this one: Cc1cc(=O)c(OCc2ccccc2)c(-c2ccc3ccc(OC(=O)N4CCCCC4)cc3c2)o1
## Result middle

* * *

- TARGET ENTITY: UniProtKB O42275
The entries below come with measured IC50 values attached.

Answered examples (5):
{"columns": ["COMPOUND", "IC50"],
 "data": [
  ["Cc1cc(=O)c(OCc2ccc(-c3ccccc3)cc2)c(/C=C/c2cccc(OC(=O)N3CCCCC3)c2)o1 [Compound 7o]", "> 20 µM"],
  ["COc1c(/C=C/c2cccc(OC(=O)N3CCCCC3)c2)oc(C)cc1=O [Compound 7p]", "> 20 µM"],
  ["Cc1cc(=O)c(OCc2ccccc2)c(CCc2cccc(OC(=O)N3CCCCC3)c2)o1 [Compound 7s]", "> 20 µM"],
  ["O=C(Oc1cccc(/C=C/c2occc(=O)c2OCc2ccccc2)c1)N1CCCCC1 [Compound 7l]", "> 20 µM"],
  ["CCN(C)C(=O)Oc1cccc(/C=C/c2oc(C)cc(=O)c2OCc2ccccc2)c1 [Compound 7b]", "> 20 µM"]
]}

## Task Given Cc1cc(=O)c(OCc2ccccc2)c(/C=C/c2cccc(OC(=O)N3CCCCC3)c2)o1 [Compound 7g] , state its recorded IC50.
## Result > 20 µM

## Task Now this one: O=C(Oc1cccc(/C=C/c2oc(CO)cc(=O)c2OCc2ccccc2)c1)N1CCCCC1 [Compound 7m]
## Result > 20 µM

* * *

- TARGET ENTITY: eqBuChE (Equus caballus, UniProt P81908)
- Sequence (P81908 whole entry): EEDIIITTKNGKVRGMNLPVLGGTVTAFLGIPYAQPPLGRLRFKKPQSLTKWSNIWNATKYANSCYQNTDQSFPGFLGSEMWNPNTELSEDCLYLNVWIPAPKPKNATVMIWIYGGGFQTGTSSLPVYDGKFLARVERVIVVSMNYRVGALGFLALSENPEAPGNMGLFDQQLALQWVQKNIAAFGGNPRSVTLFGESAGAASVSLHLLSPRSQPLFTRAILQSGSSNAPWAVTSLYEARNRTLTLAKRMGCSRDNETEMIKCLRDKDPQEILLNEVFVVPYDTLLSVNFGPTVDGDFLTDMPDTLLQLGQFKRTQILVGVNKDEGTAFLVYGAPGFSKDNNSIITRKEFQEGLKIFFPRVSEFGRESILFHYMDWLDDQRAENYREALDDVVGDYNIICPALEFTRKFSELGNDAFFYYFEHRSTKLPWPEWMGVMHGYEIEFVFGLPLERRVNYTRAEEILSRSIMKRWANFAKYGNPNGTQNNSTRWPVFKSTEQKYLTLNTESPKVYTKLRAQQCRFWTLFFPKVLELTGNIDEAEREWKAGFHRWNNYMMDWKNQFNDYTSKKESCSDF
MEASUREMENT NAME: pIC50
pIC50 here: minus log base 10 of the concentration, concentration in moles per litre.

Answered examples (2):
{"columns": ["SMILES DATA", "TARGET ENTITY", "ENDPOINT RESULT"],
 "data": [
  ["Cc1cc(=O)c(OCc2ccccc2)c(/C=C/c2cccc(OC(=O)N3CCC(Cc4ccccc4)CC3)c2)o1", "eqBuChE (Equus caballus, UniProt P81908)", 7.12],
  ["O=C(Oc1cccc(/C=C/c2oc(CO)cc(=O)c2OCc2ccccc2)c1)N1CCCCC1", "eqBuChE (Equus caballus, UniProt P81908)", 8.28]
]}

Continue with the next compound.
## Task Given Cc1cc(=O)c(OCc2ccccc2)c(/C=C/c2cccc(OCC(=O)N3CCCCC3)c2)o1 , state its recorded pIC50.
## Result 5.85

* * *

- TARGET ENTITY: UniProtKB P81908
MEASUREMENT NAME: pKi
pKi here: minus log base 10 of the concentration, concentration in moles per litre.

## Task Given COc1c(/C=C/c2cccc(OC(=O)N3CCCCC3)c2)oc(C)cc1=O , state its recorded pKi.
## Result 8.50

* * *

// values below are pIC50; system is eqBuChE (Equus caballus)
pIC50 here: minus log base 10 of the concentration, concentration in moles per litre.

Answered examples (7):
{"columns": ["SMILES DATA", "pIC50"],
 "data": [
  ["Cc1cc(=O)c(OCc2ccccc2)c(/C=C/c2cccc(OC(=O)N3CCN(Cc4ccccc4)CC3)c2)o1", 7.50],
  ["CCN(C)C(=O)Oc1cccc(/C=C/c2oc(C)cc(=O)c2OCc2ccccc2)c1", 6.81],
  ["Cc1cc(=O)c(OCc2ccc3ccccc3c2)c(/C=C/c2cccc(OC(=O)N3CCCCC3)c2)o1", 7.72],
  ["Cc1cc(=O)c(OCc2ccccc2)c(/C=C/c2cccc(OC(=O)N3CCCCC3)c2)o1", 7.82],
  ["CCN(CC)C(=O)Oc1cccc(/C=C/c2oc(C)cc(=O)c2OCc2ccccc2)c1", 6.19],
  ["COc1c(/C=C/c2cccc(OC(=O)N3CCCCC3)c2)oc(C)cc1=O", 8.33],
  ["Cc1cc(=O)c(OCc2ccccc2)c(CCc2cccc(OC(=O)N3CCCCC3)c2)o1", 7.91]
]}

Continue with the next compound.
## Task Given Cc1cc(=O)c(OCc2ccccc2)c(/C=C/c2cccc(OC(=O)N3CCOCC3)c2)o1 , state its recorded pIC50.
## Result 7.14

* * *

- PROTOCOL DETAILS: PAMPA-BBB in vitro blood-brain barrier permeation assay
- CONDITION CONTEXT: PAMPA, pH 7.4
The entries below come with measured Papp at 10 h, 25 μg/mL values attached.
Record the value in ×10⁻⁶ cm/s, omitting the unit from your answer.

Answered examples (3):
{"columns": ["MOLECULE", "Papp at 10 h, 25 μg/mL / ×10⁻⁶ cm/s"],
 "data": [
  ["COc1c(/C=C/c2cccc(OC(=O)N3CCCCC3)c2)oc(C)cc1=O [Compound 7p]", 5.7],
  ["CN1C(C(=O)Nc2ccccn2)=C(O)c2ccccc2S1(=O)=O [Piroxicam]", 2.16],
  ["CN1C(C(=O)Nc2ccccn2)=C(O)c2sccc2S1(=O)=O [Tenoxicam]", 0.35]
]}

## Task Given CCn1cc(C(=O)O)c(=O)c2cc(F)c(N3CCNCC3)cc21 [Norfloxacin] , state its recorded Papp at 10 h, 25 μg/mL.
## Result 0.18

* * *

- TARGET ENTITY: eqBuChE (Equus caballus)
MEASUREMENT NAME: pIC50
pIC50 here: minus log base 10 of the concentration, concentration in moles per litre.

Answered examples (2):
{"columns": ["MOLECULE", "pIC50"],
 "data": [
  ["Cc1cc(=O)c(OCc2ccc(-c3ccccc3)cc2)c(/C=C/c2cccc(OC(=O)N3CCCCC3)c2)o1 [Compound 7o]", 7.72],
  ["Cc1cc(=O)c(OCc2ccccc2)c(/C=C/c2cccc(OC(=O)N(C(C)C)C(C)C)c2)o1 [Compound 7d]", 5.07]
]}

Continue with the next molecule.
## Task Given O=C(Oc1cccc(/C=C/c2occc(=O)c2OCc2ccccc2)c1)N1CCCCC1 [Compound 7l] , state its recorded pIC50.
## Result 8.09
